Test system: OVCAR-5 ovarian
Experiment: NCI-60 one-dose screen, 48 h (100 = growth as untreated, 0 = no growth, -100 = all killed)
Conditions: 10 µM unless noted
Description: Growth inhibition of the OVCAR-5 human tumor cell line is measured as a screen for anti-cancer activity. Cells are grown in 96 well plates and exposed to the test compound for 48 hours. Compounds are tested at a single concentration, which is 10^-5 M for most compounds. The reported endpoint is percent growth (GI% or GIPRCNT), where numbers from 0 - 100% represent growth inhibition, and numbers from -100% - 0 represent cell death. For example, a value of 40 represents 60% growth inhibition. […]
About 83,000 compounds went through this panel and 20% of them were active in at least one assay; those are over-represented in the sample as a whole.
Lab note - cut at 90% for growth: yes (1) if strictly below, no (0) if not.

Completed entries (count: 3):
CCC[CH2][Sn]1([CH2]CCC)[O]C2C(CO)OC(n3ccc(N)nc3=O)C2[O]1 (configuration not stated)	yes (1)
CCCCN(CCCC)CCCCCCCCCCO	no (0)
CCc1cccc(CC)c1N1C(=O)C=CC1=O	no (0)

## Task Regarding Nc1nc2ncc(CNc3ccc(C(=O)NC(CCC(=O)NC(CCC(=O)NC(CCC(=O)NC(CCC(=O)NC(CCC(=O)O)C(=O)O)C(=O)O)C(=O)O)C(=O)O)C(=O)O)cc3)nc2c(=O)[nH]1 (configuration not stated) , kindly confirm whether its growth is beneath 90%.
## Result no (0)

## Task Bench note: check whether "O=C(/C(Cl)=N/O)c1ccc(-c2ccccc2)cc1" shows growth below 90%
## Result no (0)

## Task Identify whether the compound COc1cccc2c1C(=O)c1c(O)c3c(c(O)c1C2=O)C[C@@](O)(C(=O)CO)C[C@@H]3OC1CC(OC(C)=O)C(OC(C)=O)C(C)O1 (some centres not stated) records growth below 90%.
## Result yes (1)

## Task Decide: growth of CCOc1ccc(C(CN2CCOCC2)C(C)=O)cc1OC (configuration not stated) strictly below 90%?
## Result no (0)

## Task Strictly below 90%: is that where growth of "COC(=O)c1ccc(=O)c2nc3/c(=C/O)c(O)cc(=O)c3[nH]c12" sits?
## Result yes (1)

## Task Would you kindly verify if growth of "C[n+]1ccccc1C[n+]1ccccc1" is strictly less than 90%?
## Result no (0)

## Task Bench note: check whether "COc1ccc(NC(=O)/C(=C/N2C(=O)/C(=C/c3ccc(OC)c(OC)c3)NC2=S)C(C)=O)cc1" shows growth below 90%
## Result no (0)

## Task Say whether its growth is strictly beneath 90%. Entry: "CC1(O)CCCCCC1"
## Result no (0)

## Task Identify whether the compound "COc1cc(/C=C/c2ccnc3ccccc23)cc(OC)c1OC" records growth below 90%.
## Result yes (1)

## Task Does this compound meet the criterion growth < 90%? "O=C(Cc1nc2cc(Cl)c(Cl)cc2nc1CC(=O)c1ccccc1)c1ccccc1"
## Result yes (1)

## Task Input "O=C(c1ccc(O)c(Br)c1)c1ccc(O)c(Br)c1" ; condition: growth strictly below 90%. Does it hold?
## Result no (0)

## Task Hello, I'm reviewing records and need to know if growth of OC(c1cc(-c2ccc(Cl)cc2)nc2c(Cl)cccc12)C1CCCCN1 (configuration not stated) is below 90%. Could you check?
## Result yes (1)

## Task # check: growth < 90% for CCCCCCCCC(=O)OCCCC(CCC(CCC1CCCO1)OC(=O)CCCCCCCC)OC(=O)CCCCCCCC (configuration not stated)
## Result no (0)

## Task Given "Cc1cc(C(=O)c2ccc(Cl)cc2)ccc1O" , is recorded growth strictly lower than 90%?
## Result no (0)

## Task State whether 90% exceeds growth recorded for CC1(C)OC2C(COC(c3ccccc3)(c3ccccc3)c3ccccc3)OC(c3c[nH]c4c(N)ncnc34)C2O1 (configuration not stated) .
## Result yes (1)

## Task Answer whether the compound "CCSc1nc2ccccc2o1" has growth strictly less than 90%
## Result no (0)

This collection of values is drawn from PubChem BioAssay (NCI).
